// reported self-cleavage per item
B1: LINE1-full (parent)
chain: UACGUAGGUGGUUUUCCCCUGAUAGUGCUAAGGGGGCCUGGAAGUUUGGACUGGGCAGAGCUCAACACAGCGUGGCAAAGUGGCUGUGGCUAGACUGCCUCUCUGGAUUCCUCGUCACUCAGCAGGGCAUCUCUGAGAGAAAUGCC

Variants of: B1
PROTOCOL_DESCRIPTION: self-cleavage, relative activity (ratio to wild type); higher = more cleavage; in vitro, sequencing; the parent is a self-cleaving ribozyme

MUTATION_SPEC: A57G A140U
self-cleavage: 1.05
//
MUTATION_SPEC: G34A U102A
self-cleavage: 1.16
//
MUTATION_SPEC: U45A A138G
self-cleavage: 1.32
//
MUTATION_SPEC: A2C A57U
self-cleavage: 0.11
//
MUTATION_SPEC: A43U U130C
self-cleavage: 2.34
//
MUTATION_SPEC: U96A U119A
self-cleavage: 0.09
//
MUTATION_SPEC: U87G U143C
self-cleavage: 0.18
//
MUTATION_SPEC: U85C G125C
self-cleavage: 0.29
//
MUTATION_SPEC: A22U A140G
self-cleavage: 0.71
//
MUTATION_SPEC: U96C U100C
self-cleavage: 0.38
//
MUTATION_SPEC: A24G C116U
self-cleavage: 0.65
//
MUTATION_SPEC: U23G U102C
self-cleavage: 1.02
//
MUTATION_SPEC: A69G U115G
self-cleavage: 0.57
//
MUTATION_SPEC: U13C A22U
self-cleavage: 1.22
//
MUTATION_SPEC: U5C A94C
self-cleavage: 0
//
MUTATION_SPEC: A78U A94G
self-cleavage: 0.46
//
MUTATION_SPEC: U26A G126C
self-cleavage: 1.42
//
MUTATION_SPEC: A64C A79G
self-cleavage: 0.28
//
MUTATION_SPEC: U29A A69G
self-cleavage: 0.42
//
MUTATION_SPEC: U108A A124G
self-cleavage: 1.55
//
MUTATION_SPEC: U15C A50G
self-cleavage: 1.11
//
MUTATION_SPEC: U45G G97A
self-cleavage: 0.07
